Reference source: patent US20260242478A1

ASSAY_SYSTEM: T1, PSMA Fab
T1 construct: also called Anti-PSMA Fab; 006 PSMA Fab
TEST_DETAILS: phage ELISA; biotinylated PSMA Fab on neutravidin plate, blocking buffer alone, anti-M13 HRP detection
Items are presented alongside their recorded Phage binding ELISA signal, Anti-PSMA Fab.
// no unit string in output, number only

A selection of reference data follows.
BINDER | MEASURED_NUMBER
PGPSCVPSWMCVGF [Phage-3437] | 1.76
MPIYCVPEWMCQGL [Phage-3446] | 1.75
PAQMCIPQWMCNWL [Phage-3438] | 1.75

Query YNMICQPQWMCSGF [Phage-3447] yields Phage binding ELISA signal, Anti-PSMA Fab of 1.75

Query EIPYCVPQWMCVAM [Phage-3434] yields Phage binding ELISA signal, Anti-PSMA Fab of 1.76

Query YGLRCEPAWMCQGF [Phage-3443] yields Phage binding ELISA signal, Anti-PSMA Fab of 1.75
